Cited source: PubChem BioAssay (EPA / NIEHS)

- measured on: Cellular tumor antigen p53 (Homo sapiens) (UniProt P04637)
- Sequence (P04637 whole entry, looked up): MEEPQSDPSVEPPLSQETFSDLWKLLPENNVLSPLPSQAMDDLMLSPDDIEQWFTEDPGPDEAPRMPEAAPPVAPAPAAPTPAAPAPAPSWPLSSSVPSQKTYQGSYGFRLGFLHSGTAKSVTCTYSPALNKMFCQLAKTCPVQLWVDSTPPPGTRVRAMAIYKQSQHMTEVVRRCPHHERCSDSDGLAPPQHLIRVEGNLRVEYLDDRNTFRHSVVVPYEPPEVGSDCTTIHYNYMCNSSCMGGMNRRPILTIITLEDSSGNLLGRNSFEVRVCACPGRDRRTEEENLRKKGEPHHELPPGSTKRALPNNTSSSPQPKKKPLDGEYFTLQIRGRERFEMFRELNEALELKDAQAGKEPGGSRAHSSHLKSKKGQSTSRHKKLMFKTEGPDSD
- experiment: TOX21_p53_BLA_p3_ratio: Tox21 HCT-116 p53 Agonism Beta-lactamase Assay, Ratio, Phase 3 (AID 2283596)
Records with an inconclusive call do not appear. Activity calls are given as the source filed them. Rule for the calls: active = hit-call score of the fitted dose curve at least 0.9, where 1 is the maximum; inconclusive = response in the unintended direction; inactive = score below 0.9.
Field 'call' accepts T for active, F for inactive

Solved cases (3 shown):
compound	category label
C=C(C)c1ccccc1	F
CC(C)NCC(O)c1ccc2ccccc2c1 (configuration not stated)	F
CC1(C)CC(N)CC(C)(C)N1	F

Now take the following compound into account.
Query: What call does the record list for `O=C(O)CCCCCC(=O)O` ?
Response: F

---

- experiment: TOX21_p53_BLA_p3_viability: Viability Assessment in the Tox21 HCT-116 p53 Agonism Beta-lactamase Assay, Phase 3 (AID 2283593);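 note: cells exposed to compound for 16 h before reading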
Inconclusive results are not listed. Calls of active or inactive are those of the source. How the source made its calls: active means hit-call score of the fitted dose curve at least 0.9, where 1 is the maximum; inconclusive means response in the unintended direction; inactive means score below 0.9.
Field 'call' accepts 1 = active, 0 = inactive

Solved cases (4 shown):
compound	category label
O=C(CCCCCCC(=O)Nc1ccccc1)NO	0
OCC(O)CS (stereo not drawn)	0
CC1(C)C(\C=C/C=C\C=C/C=C2/N(CCCCS(=O)(=O)O)c3ccc4ccccc4c3C2(C)C)=[N+](CCCCS(=O)(=O)[O-])c2ccc3ccccc3c21	0
CCN(CC)CCCN(c1ccccc1)C1Cc2ccccc2C1	1

Query: What call does the record list for CC(C(=O)O)c1cccc(C(=O)c2ccccc2)c1 (stereo not drawn) ?
Response: 0

Query: Repeat with `Cc1oc(C)c(C(=O)Nc2ccccc2)c1C`
Response: 0

Query: Repeat with `C#CCN(C)Cc1ccccc1`
Response: 0

Query: Repeat with `Oc1ccc(Oc2ccccc2)cc1`
Response: 0

Query: Repeat with `CCN(CC)C(=O)c1cccnc1`
Response: 0

---

- experiment: ATG_TCF_b_cat_CIS: Attagene CIS-FACTORIAL HepG2 Assay for human T-Cell-Factor with beta-catenin (TCF/b-cat) (AID 2282965)
- measurement parameters: HepG2 TCF/beta-catenin cis-reporter transcription, actives raise or lower the signal
Calls of active or inactive are those of the source. How the source made its calls: active means hit-call score of the fitted dose curve at least 0.9, where 1 is the maximum; inactive means score below 0.9.
Field 'call' accepts True = active, False = inactive

Solved cases (10 shown):
molecule	category label
CN1CCCC1	False
CC1(C)S[C@@H]2[C@H](NC(=O)[C@H](N)c3ccccc3)C(=O)N2[C@H]1C(=O)O	False
N#CCN(CC#N)CCN(CC#N)CC#N	False
C=CN1CCCCCC1=O	False
Cc1cccnc1	False
CCCCn1cc[n+](C)c1	False
CC1=C(CC=O)C(C)(C)CCC1	False
Oc1ccc(Cl)cc1C1CCCC1	True
C=C(C)C(=O)OCCCCCC	False
CC(=O)OC(C)(C)Cc1ccccc1	False

Now take the following molecule into account.
Query: What call does the record list for `CNC(=C[N+](=O)[O-])NCCSCc1csc(CN(C)C)n1` ?
Response: False

---

- Read-out: Actin alpha 1 (ACTA1), ACTA1 (gene 58)
- experiment: BSK_MyoF_ACTA1: BioMAP Diversity Plus: MyoF Assay for Actin alpha 1 (ACTA1) Biomarker Activity (AID 2284244)
- measurement parameters: primary human lung fibroblasts
Activity calls are given as the source filed them. Rule for the calls: active = hit-call score of the fitted dose curve at least 0.9, where 1 is the maximum; inactive = score below 0.9.
Field 'call' accepts active, inactive

molecule	category label
CN(C)c1ccc(C(c2ccccc2)c2ccc(N(C)C)cc2)cc1	active
Cc1cccnc1	inactive
CCCCCCCCCCC1CO1 (stereo unspecified)	active
Sc1nc2ccccc2s1	inactive
Cc1cc(-n2nc3ccc(Cl)cc3n2)c(O)c(C(C)(C)C)c1	inactive

Now take the following molecule into account.
Query: What call does the record list for CCCCCCC(O)CCCCCCCCCCC(=O)OC (stereo unspecified) ?
Response: inactive
